Data provenance: ChEMBL document CHEMBL3507680

- test name: Human HepG2 cell viability assay in 384 well format
- Format: toxicity, cell-based
- Set-up: dose 125 nL, time 70.5 hour; concentration not given beside the values
- conditions: HepG2 cells, read-out: Inhibition
measured attribute: cytotoxicity at 70.5 h

{"compound": "CC(CNC(=O)Nc1cn[nH]c1)N1CCOCC1 (stereo unspecified)", "cytotoxicity at 70.5 h": "-12.1%"}
{"compound": "CC(C)(C)c1cc(NC(=O)CN2CCCC2Cn2cccn2)on1 (stereo unspecified)", "cytotoxicity at 70.5 h": "1.91%"}
{"compound": "Cc1cc2c(o1)CC(C)(C)CC2NC(=O)CNC(=O)C1CC1 (stereo unspecified)", "cytotoxicity at 70.5 h": "-2.04%"}
{"compound": "O=C(CCN1CCC(c2cc3ccccc3[nH]2)CC1)N1CCOCC1", "cytotoxicity at 70.5 h": "-1.25%"}
{"compound": "CCc1n[nH]c(C(=O)NCCn2nccc2C)c1C", "cytotoxicity at 70.5 h": "-5.81%"}

Switching to the query record.
Task: Please report cytotoxicity at 70.5 h for the following compound: `COc1ccccc1NC(=O)Cn1c(=O)nc(N)c2cc(C)sc21`
Output: -16.1%

====

- test name: Human HepG2 cell viability assay in 384 well format
- Assay type: toxicity, cell-based
- Set-up: dose 125 nL, time 70.5 hour; concentration not given beside the values
- conditions: HepG2 cells, read-out: Inhibition
measured attribute: cytotoxicity at 70.5 h (%)
Give your result in % as a bare value.

{"compound": "Cc1nc(CN2C[C@@H]3CCCO[C@@H]3[C@H](N(C)C(C)C)C2)cs1", "experimental value": -1.04}

Task: Answer with reported cytotoxicity at 70.5 h of `CCNc1ccnc(NC2CCN(CC(N)=O)CC2)n1`
Output: 14

Task: Give cytotoxicity at 70.5 h for the following compound: `c1cc(CNc2ncc(-c3cnccn3)c(C3CC3)n2)ccn1`
Output: -2.59

Task: Tell us which cytotoxicity at 70.5 h value is on record for `Cc1cc(C(=O)N(C)Cc2cccs2)nc(N2CCCC2)n1`
Output: -6.81

Task: Supply cytotoxicity at 70.5 h value. Item: CC(C)NC(=O)C1(Cc2ccccc2-c2cncnc2)CCCNC1 (configuration not stated)
Output: -4.61

====

- test name: Human HepG2 cell viability assay in 384 well format
- Assay type: toxicity, cell-based
- Parameters: dose 125 nL, time 70.5 hour; concentration not given beside the values
- conditions: HepG2 cells, read-out: Inhibition
Overview of recorded cytotoxicity at 70.5 h for various compounds
Your answer is read as %, so omit the unit and give the number.

Worked cases, answers included:
{"compound": "CS(=O)(=O)c1cn[nH]c1C1CCCN1C(=O)c1cccnc1 (stereo unspecified)", "measurement units": "%", "experimental value": -2.09}
{"compound": "CN1CCC2(Cc3ccccc3CN(C(=O)Cc3cccc(Cl)c3)C2)C1 (stereo unspecified)", "measurement units": "%", "experimental value": 30.2}
{"compound": "Cc1ccc(-c2nn(-c3cccc(F)c3)cc2CN(C)CCO)o1", "measurement units": "%", "experimental value": -4.83}
{"compound": "CO[C@H]1CCN(S(=O)(=O)c2cn(C)cn2)[C@H]1Cc1ccncc1", "measurement units": "%", "experimental value": -0.309}
{"compound": "CC(C)Oc1ccc2c(NC(=O)[C@H](C)O)nn(CC(F)(F)F)c2c1", "measurement units": "%", "experimental value": -16.3}
{"compound": "CN(C)C(=O)N1C[C@@H]2CC[C@H](C1)N(C(=O)c1cccc(N(C)C)c1)C2", "measurement units": "%", "experimental value": -4.96}

Task: Indicate its recorded cytotoxicity at 70.5 h; the compound in question is CCn1c(C2CCCN2Cc2noc(C(C)(C)C)n2)nc2ccccc21 (stereo unspecified)
Output: -26.2

Task: Output cytotoxicity at 70.5 h of COCC(=O)N1CCCC(c2noc3nc(C)cc(C(F)(F)F)c23)C1 (stereo unspecified)
Output: 12.8

Task: State its cytotoxicity at 70.5 h for this compound: `Cc1c(CNCCCOc2cccnc2)c2ccccc2n1CC(N)=O`
Output: 5.45

Task: // fetch cytotoxicity at 70.5 h given entry CC(C)(CN1CCC2(CCCNC2)C1)N1CCOCC1 (stereo unspecified)
Output: 8.57

Task: Provide cytotoxicity at 70.5 h value for the following compound: `CCn1ccnc1C1CCN(c2ncnc3ccsc23)CC1`
Output: 7.55

Task: Look up and state reported cytotoxicity at 70.5 h for `COc1ccc(N(C(=O)c2ccccn2)C(C)C)cc1F`
Output: -3.02

Task: # return recorded cytotoxicity at 70.5 h for entry `COc1ncccc1CNCc1c(C(C)C)nn(C)c1Cl`
Output: -5.22

Task: Consider the compound O=C(COc1ccc(Cl)cc1)N1CCOCC1c1ncon1 (stereo unspecified) and give its recorded cytotoxicity at 70.5 h.
Output: -1.69

====

Attribute: cytotoxicity at 70.5 h
- test name: Human HepG2 cell viability assay in 384 well format
- Format: toxicity, cell-based
- Parameters: dose 125 nL, time 70.5 hour; concentration not given beside the values
- conditions: HepG2 cells, read-out: Inhibition
Write down the numeric answer in % and omit the unit.

Some compounds with known cytotoxicity at 70.5 h results, for comparison:
{"compound": "Cc1nc2n(n1)CC(NCC(=O)N(C)Cc1cccs1)CC2 (centres undefined)", "experimental value": 2.31}
{"compound": "Cc1noc(C)c1CS(=O)(=O)CC(=O)NCCc1cccs1", "experimental value": 15.1}
{"compound": "O=S(=O)(Cc1ccon1)N1CCN(c2ccncc2Cl)CC1", "experimental value": -11.7}

Task: Supply recorded cytotoxicity at 70.5 h for O=C(Nc1cc(Cl)ccc1Cl)NC1CCN(C2CCOC2)CC1 (centres undefined) here.
Output: 25.3

Task: Item `Cc1nn(C)c(C)c1CC(=O)NCc1cccnc1OC1CCCC1` : provide cytotoxicity at 70.5 h
Output: -3.95

Task: Tell me cytotoxicity at 70.5 h reported for Cc1nc(C)n(CC2CCCCN2CC(=O)Nc2cc(C)on2)n1 (centres undefined)
Output: -13.4

Task: Please indicate cytotoxicity at 70.5 h recorded for CN(C)CCOC1CC2(CCN(c3cnccn3)CC2)c2ccccc21 (centres undefined)
Output: 31.5

Task: Hello, please tell me recorded cytotoxicity at 70.5 h for this one: `Cn1nc(CN2CCCC2)c2c1CN(C(=O)c1ccc[nH]1)CC2`
Output: 11.9

Task: Specify reported cytotoxicity at 70.5 h for the compound shown: CCN1CCC2(COCc3c(C)nc(N(C)C)nc32)C1 (centres undefined)
Output: -8.16

Task: Fill in cytotoxicity at 70.5 h for record `Cc1ccsc1[C@@H]1CCN(C(=O)Cn2cc3ccccc3n2)C[C@H]1O`
Output: 15.1

Task: Please report the measured cytotoxicity at 70.5 h for COc1ccc(COCC(O)CNC(=O)c2cccc(OC)c2)cc1 (centres undefined)
Output: -0.933

Task: Answer with the recorded cytotoxicity at 70.5 h for the compound listed here: `c1cncc(COC[C@H]2CC[C@H]3[C@H](CCN3Cc3nccs3)O2)c1`
Output: -0.559

Task: Please supply the value of reported cytotoxicity at 70.5 h for the item `Cn1cnc(S(=O)(=O)NCCCN2CCCC2)c1Cl`
Output: -4.58

Task: Assign cytotoxicity at 70.5 h to the following record: `CCc1ocnc1C(=O)N1CCN(c2ccc3ccccc3c2)CC1`
Output: 4.76

Task: Report measured cytotoxicity at 70.5 h; entry is `CS(=O)(=O)NCc1cn2c(n1)CN(Cc1ccoc1)CC2`
Output: 3.17

Task: Let me know recorded cytotoxicity at 70.5 h for COc1ccc(F)cc1C(C)NC(=O)Cn1ccc(=O)n(C)c1=O (centres undefined) , thanks.
Output: -6.42

Task: Name the recorded cytotoxicity at 70.5 h of the compound listed here: `O[C@H]1CN(Cc2c[nH]nc2-c2ccccc2)CC[C@@]12CCCO2`
Output: 15.7

Task: Specify cytotoxicity at 70.5 h for `NC(=O)N1CCC(NCc2cc(Br)ccc2Cl)CC1` and stop.
Output: -1.95

Task: Fill in cytotoxicity at 70.5 h for record N#Cc1ccc(OCC(=O)N2CCCC(n3cccn3)C2)cc1 (centres undefined)
Output: -4.85

Task: Quickly give me recorded cytotoxicity at 70.5 h for CSCC(C)(O)CNC(=O)c1cc(F)ccc1Br (centres undefined)
Output: 1.71

====

- test name: Human HepG2 cell viability assay in 384 well format
- Format: toxicity, cell-based
- Set-up: dose 125 nL, time 70.5 hour; concentration not given beside the values
- conditions: HepG2 cells, read-out: Inhibition
measured attribute: cytotoxicity at 70.5 h (%)
Answer format: numeric, % implied, no suffix.

Answered cases to consult:
{"compound": "Cn1ccc2ccc(C(=O)N3CCN(C(=O)N4CCOCC4)CC3)cc21", "cytotoxicity at 70.5 h (%)": 23.3}
{"compound": "Cc1n[nH]c(C2CN(C(=O)c3ccn(C)c(=O)c3)CCO2)n1 (configuration not stated)", "cytotoxicity at 70.5 h (%)": 31.8}
{"compound": "Cc1nc(C)n(CCC(=O)N2CCc3ncc(Cl)cc3C2)n1", "cytotoxicity at 70.5 h (%)": 6.03}

Task: Output measured cytotoxicity at 70.5 h for this item: `CC(C)c1nc(CN2CCN(C(=O)CN3CCOCC3)CC2)no1`
Output: 28.7

Task: For the compound `CCc1c(C)n(CCC#N)c2nc3ccccc3n2c1=O` , give its reported cytotoxicity at 70.5 h.
Output: -9.18

Task: Output measured cytotoxicity at 70.5 h for this item: CCN(C(=O)c1cc(C)nc2ccccc12)C1CC(=O)NC1=O (configuration not stated)
Output: -1.78
